species: Mus musculus; assay: Anticonvulsant activity in albino mouse assessed as pentylenetetrazole-induced seizure measured after 30 mins; type: functional; conditions: 0.5 h
Lab note - cut at 80 mg/kg for ED50: 1 if strictly below, 0 if not.

Input: Hello, I'm reviewing records and need to know if ED50 of Nc1nnc(-c2ccccc2OCc2ccccc2F)o1 is below 80 mg/kg. Could you check?
Output: 1

Input: Hello, I'm reviewing records and need to know if ED50 of S=C1N=C(c2ccccc2)CC(c2ccccc2)N1c1ccc(Cl)cc1 (stereo not drawn) is below 80 mg/kg. Could you check?
Output: 0

Input: Hello, I'm reviewing records and need to know if ED50 of CN(C)Nc1ccc(/C=N/Nc2nnc(-c3ccccc3)nc2Cc2cccc(Cl)c2)cc1 is below 80 mg/kg. Could you check?
Output: 0

Input: Hello, I'm reviewing records and need to know if ED50 of CN1C(=O)CN=C(c2ccccc2)c2cc(Cl)ccc21 is below 80 mg/kg. Could you check?
Output: 1

Input: Hello, I'm reviewing records and need to know if ED50 of O=C1NC(=O)C(c2ccccc2)(c2ccccc2)N1 is below 80 mg/kg. Could you check?
Output: 0

Input: Hello, I'm reviewing records and need to know if ED50 of NC(=O)N1c2ccccc2C=Cc2ccccc21 [CARBAMAZEPINE] is below 80 mg/kg. Could you check?
Output: 0

Input: Hello, I'm reviewing records and need to know if ED50 of CN(C)Nc1ccc(/C=N/Nc2nnc(-c3ccccc3)nc2Cc2ccc(Cl)cc2)cc1 is below 80 mg/kg. Could you check?
Output: 0

Input: Hello, I'm reviewing records and need to know if ED50 of COc1ccc(N2C(=S)N=C(c3ccccc3)CC2c2ccccc2)cc1 (stereo not drawn) is below 80 mg/kg. Could you check?
Output: 0

Values compiled from ChEMBL document CHEMBL4725277.
